Origin of the recorded values: ChEMBL document CHEMBL1221163

Test system: HUVEC
assayInfo: Antiproliferative activity against human HUVEC assessed as inhibition of acidic FGF-stimulated cell proliferation by fluorimetric assay
Assay type: functional, cell-based
pIC50: −log10 of the molar value.
reportedProperty: pIC50

So for CC(C)Cn1c(=O)n(C)c(=O)c2c(SCCCO)c(Cc3cccc4ccccc34)sc21 , the logged pIC50 turned out to be < 6.00

----------
assayedSystem: Monocarboxylate transporter 1 (Homo sapiens, UniProt P53985)
Sequence (P53985 whole entry): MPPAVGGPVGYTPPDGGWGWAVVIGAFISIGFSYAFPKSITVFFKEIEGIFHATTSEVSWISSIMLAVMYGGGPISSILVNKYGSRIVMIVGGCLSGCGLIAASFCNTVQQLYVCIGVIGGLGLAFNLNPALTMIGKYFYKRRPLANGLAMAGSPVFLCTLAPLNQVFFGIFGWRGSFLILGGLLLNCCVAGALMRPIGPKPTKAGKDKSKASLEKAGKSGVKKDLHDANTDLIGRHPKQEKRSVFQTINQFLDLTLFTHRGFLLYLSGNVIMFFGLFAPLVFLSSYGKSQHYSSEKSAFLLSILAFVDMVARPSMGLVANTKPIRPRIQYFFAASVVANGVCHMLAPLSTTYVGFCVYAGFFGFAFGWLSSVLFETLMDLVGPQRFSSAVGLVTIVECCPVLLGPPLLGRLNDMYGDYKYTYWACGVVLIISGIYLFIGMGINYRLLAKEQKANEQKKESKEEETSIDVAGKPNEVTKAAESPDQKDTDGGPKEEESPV
assayInfo: Displacement of [3H]5-[(3-hydroxypropyl)thio]-3-methyl-1-[2-(methyl-t)propyl-2,3-t2]-6-(1-naphthalenylmethyl)-1H-pyrrolo[3,4-d]pyrimidine-2,4(3H,6H)-dione from human MCT1 expressed in INS1 cell membrane
Assay type: cell membranes
protocolConditions: read-out: Ki
reportedProperty: pKi
// pKi here means minus log10 of the molar concentration (mol/L)

So for CC(C)Cc1nn(C)c(=O)c2cn(Cc3ccc(N=[N+]=[N-])c([125I])c3)cc12 , the logged pKi turned out to be 7.64
